For each entry below, report its Vm value.
System: P. furiosus α-glucosidase
PROCEDURE DETAILS: Substrate specificity (kinetic assays) of purified α-glucosidase
Type: biochemical, Pyrococcus furiosus
MEASUREMENT CONDITIONS: substrate hydrolysed by purified α-glucosidase
Method: α-Glucosidase was assayed using p-nitrophenyl-α-D-glucopyranoside (PNP-α-G) as substrate, and β-glucosidase was assayed using p-nitrophenyl-β-D-glucopyranoside (PNP-β-G) as substrate. Assays were conducted as follows; for each assay, 1.0 ml of substrate consisting of 10 mM PNP-α-G or PNP-β-G in 0.1 M sodium phosphate buffer, pH 5.5, was pipetted into a quartz cuvette. The cuvettes were inserted into a heated cell holder and preincubated for 5 to 10 minutes at the assay temperature of 98° C. […]
Please report the result as a number followed by the unit.

Item: OC[C@H]1O[C@H](O[C@H]2[C@H](O)[C@@H](O)C(O)O[C@@H]2CO)[C@H](O)[C@@H](O)[C@@H]1O (mixture of isomers) Test system: P. furiosus α-glucosidase Read-out: Vm Value: ? 1760 U/mg

Item: OC[C@H]1O[C@H](OC[C@H]2OC(O)[C@H](O)[C@@H](O)[C@@H]2O)[C@H](O)[C@@H](O)[C@@H]1O (stereo partly shown) Test system: P. furiosus α-glucosidase Read-out: Vm Value: ? 951 U/mg

Item: CO[C@H]1O[C@H](CO)[C@@H](O)[C@H](O)[C@H]1O [Methyl-α-D-glucopyranoside] Test system: P. furiosus α-glucosidase Read-out: Vm Value: ? 186 U/mg

Item: O=[N+]([O-])c1ccc(O[C@@H]2O[C@H](CO)[C@H](O)[C@H](O)[C@H]2O)cc1 [p-Nitrophenyl-α-D-glucopyranoside] Test system: P. furiosus α-glucosidase Read-out: Vm Value: ? 287 U/mg

---

Test system: P. furiosus α-glucosidase
PROCEDURE DETAILS: Substrate specificity (kinetic assays) of purified α-glucosidase
Type: biochemical, Pyrococcus furiosus
MEASUREMENT CONDITIONS: substrate hydrolysed by purified α-glucosidase
METRIC NAME: Km (µM)
I only need the number, in µM, no unit after it.

# query: Km of entry O=[N+]([O-])c1ccc(O[C@@H]2O[C@H](CO)[C@H](O)[C@H](O)[C@H]2O)cc1 [p-Nitrophenyl-α-D-glucopyranoside] 260

# query: Km of entry CO[C@H]1O[C@H](CO)[C@@H](O)[C@H](O)[C@H]1O [Methyl-α-D-glucopyranoside] 770

# query: Km of entry OC[C@H]1O[C@H](OC[C@H]2OC(O)[C@H](O)[C@@H](O)[C@@H]2O)[C@H](O)[C@@H](O)[C@@H]1O (stereo partly shown) 8200

# query: Km of entry OC[C@H]1O[C@H](O[C@H]2[C@H](O)[C@@H](O)C(O)O[C@@H]2CO)[C@H](O)[C@@H](O)[C@@H]1O (mixture of isomers) 5200
